Data credit: patent US20190070251A1

Target: human µ opioid receptor (human), P35372
Sequence (P35372 whole entry): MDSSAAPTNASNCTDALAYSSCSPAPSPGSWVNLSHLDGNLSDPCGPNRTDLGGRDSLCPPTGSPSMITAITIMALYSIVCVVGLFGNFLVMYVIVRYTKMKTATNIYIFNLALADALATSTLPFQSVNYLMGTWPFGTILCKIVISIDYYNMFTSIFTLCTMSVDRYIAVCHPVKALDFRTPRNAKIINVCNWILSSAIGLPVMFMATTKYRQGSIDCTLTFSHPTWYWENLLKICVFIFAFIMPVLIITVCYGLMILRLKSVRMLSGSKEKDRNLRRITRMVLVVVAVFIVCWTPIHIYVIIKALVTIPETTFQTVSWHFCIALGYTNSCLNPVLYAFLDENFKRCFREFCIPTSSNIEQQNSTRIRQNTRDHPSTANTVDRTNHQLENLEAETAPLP
Assay: radioligand competition with [3H]naloxone (5 nM), membranes of CHO-K1 cells with recombinant human µ opioid receptor; Ki by Cheng-Prusoff; sample pre-incubated 20 h at 37 C, pH 7.5 (partly released biphalin)
observed.property: pKi
# pKi is unitless: minus log10 of the molar concentration; print number only

### Prompt What pKi value was documented for this binder, YAGF (modifications not checked) [Di-C2-PEG2-FMOC-NHS-20K-biphalin] ?
### Response 8.00
